Cited source for all entries: ChEMBL document CHEMBL3611989

Quick list: MIC per entry.
# Test system: Staphylococcus aureus
# test protocol: Antimicrobial activity against methicillin-resistant Staphylococcus aureus USA300 assessed as reduction in bacterial growth incubated for 18 to 20 hrs at 37 degC by broth microdilution method
# Type: functional
assay metric: MIC (µM)

INSERT INTO results (test_smiles, inequality_sign, measured_number) VALUES
  ('[C-]#[N+]c1ccccc1/C=C/c1ccc(CCCC)cc1', '>', 128),
  ('[C-]#[N+]c1ccccc1/C=C/c1ccc(C(F)(F)F)cc1', '=', 8),
  ('[C-]#[N+]c1ccccc1/C=C/c1ccc(C)cc1', '=', 16),
  ('N#Cc1ccccc1/C=C/c1ccccc1', '>', 128),
  ('Nc1ccccc1CCc1ccccc1', '>', 128),
  ('[C-]#[N+]c1ccccc1CP(=O)(OCC)OCC', '>', 128),
  ('[C-]#[N+]c1ccccc1/C=C/c1ccccn1', '=', 16),
  ('[C-]#[N+]c1ccc(/C=C/c2ccccc2)cc1', '=', 4),
  ('[C-]#[N+]c1ccccc1/C=C/c1cccc(F)c1', '=', 32),
  ('[C-]#[N+]c1ccccc1/C=C/c1ccc(F)cc1', '=', 8),
  ('[C-]#[N+]c1cccc(/C=C/c2ccccn2)c1', '=', 32),
  ('[C-]#[N+]c1ccccc1CCc1ccccc1', '=', 4),
  ('[C-]#[N+]c1ccccc1/C=C(\CC)c1ccc(C(F)(F)F)cc1', '=', 32);
